Test system: MCF-10A
Assay: Cell viability assay (CellTiter Glo), non-tumorigenic breast epithelial cell line MCF-10A
Type: cell-based
Conditions: Homo sapiens, 96 hours
pIC50: −log10 of the molar value.
assayEndpoint: pIC50

* CN(C)C(=O)[C@H]1Cc2c([nH]c3ccccc23)[C@H](c2ccc(NC(=O)OC(C)(C)C)cc2)N1C(=O)CCl [Example 56] | 5.82
* COC(=O)c1ccc([C@H]2c3[nH]c4ccccc4c3C[C@H](C(=O)OC)N2C(=O)CCl)cc1 [Example K601, RSL3, reference compound] | 5.53
* [2H]C([2H])(Cl)C(=O)N1[C@@H](c2ccc(C(=O)OC)cc2)c2[nH]c3ccccc3c2C[C@@H]1C(=O)OC [Example 90] | 5.83

* * *

Test: Whole blood stability, human
Type: in vitro ADME
Settings: 30 min
assayEndpoint: Whole Blood Stability % Remaining at 37° C. Human (%)

* COC(=O)c1ccc([C@H]2c3[nH]c4cccc(Br)c4c3C[C@H](C(=O)OC)N2C(=O)CCl)cc1 | 109.5
* CC(C)(C)OC(=O)c1ccc([C@H]2c3[nH]c4ccccc4c3C[C@H](C(=O)OC(C)(C)C)N2C(=O)CCl)cc1 | 44.4
* COC(=O)[C@H]1Cc2c([nH]c3ccccc23)[C@H](c2ccc(C(=O)NCCN)cc2)N1C(=O)CCl | 72.7
* COC(=O)[C@H]1Cc2c([nH]c3ccccc23)[C@H](c2ccc(C(=O)N(C)C)cc2)N1C(=O)CCl | 52.0
* CNS(=O)(=O)c1ccc([C@H]2c3[nH]c4ccccc4c3C[C@H](C(=O)OC)N2C(=O)CCl)cc1 | 58.8
* C[C@H]1Cc2c([nH]c3ccccc23)[C@H](c2ccc(S(=O)(=O)N[C@]34CC5C[C@H](C[C@H](C5)C3)C4)cc2)N1C(=O)CCl | 46.8
* COC(=O)[C@H]1Cc2c([nH]c3ccccc23)[C@H](c2ccc(C(=O)NC(C(=O)O)C(C)(C)C)cc2)N1C(=O)CCl (single isomer, unassigned) | 84.0
* CN(C)C(=O)[C@H]1Cc2c([nH]c3ccccc23)[C@H](c2ccc(S(=O)(=O)N3CCC(O)CC3)cc2)N1C(=O)CCl | 43.0

* * *

Assay: PK profile, IV plasma concentration and PK parameters
Type: in vivo
Conditions: Balb/C nude, mouse, iv, 5 mg/kg, 30% Kolliphore EL with 1% poloxamar 407 in water
assayEndpoint: Cmax (ng/mL)

* C[C@H]1Cc2c([nH]c3ccccc23)[C@H](c2ccc(NC34CC5CC(CC(C5)C3)C4)cc2)N1C(=O)CCl [Compound 150] | 2260
* CCCC[C@H]1Cc2c([nH]c3ccccc23)[C@H](c2ccc(NC34CC5CC(CC(C5)C3)C4)cc2)N1C(=O)CCl [Compound 149] | 22000
* CCCC[C@H]1Cc2c([nH]c3ccccc23)[C@H](c2ccc(S(=O)(=O)NC3CC3)cc2F)N1C(=O)CCl [Compound 169] | 2220
* C#CC(=O)N1[C@@H](CCCC)Cc2c([nH]c3ccccc23)[C@@H]1c1ccc(NC23CC4CC(CC(C4)C2)C3)cc1 [Compound 148] | 33000

* * *

Measured pIC50 of individual entries
Tested on: A549
Assay: Cell viability assay, A549 cells
Format: cell-based
Settings: Homo sapiens, A549, Cell Line A549; read-out: IC50
pIC50: −log10 of the molar value.
assayEndpoint: pIC50

- C[C@H]1Cc2c([nH]c3ccccc23)[C@H](c2ccc(N3CCOCC3)cc2)N1C(=O)/C=C/C(F)(F)F: 4.66
- C#CC(=O)N1[C@@H](CCCC)Cc2c([nH]c3ccccc23)[C@@H]1c1ccc(F)cc1: 5.36
- COC(=O)[C@H]1Cc2c([nH]c3ccccc23)[C@H](c2ccc(C(=O)OC(C)(C)C)cc2)N1C(=O)C(Cl)Cl: 5.21
- C#CC(=O)N1[C@@H](c2ccc(C#N)cc2)c2[nH]c3ccccc3c2C[C@@H]1C: 4.84
- CC#CC(=O)N1[C@@H](c2ccc(C(=O)OC)cc2)c2[nH]c3ccccc3c2C[C@@H]1C(=O)OC: 5.19

* * *

Parameter pIC50: see the listing below.
Tested on: KP4
Assay: Cell viability assay (CellTiter Glo), pancreatic ductal adenocarcinoma KP4
Assay type: cell-based, human
Details: Homo sapiens, KP-4, Cell Line KP4; read-out: IC50
Method: Cell viability assay was performed to assess the potency of the compounds in human cancer cell lines KP4 (pancreatic ductal adenocarcinoma), MiaPaCa-2 (pancreatic carcinoma), AsPC-1 (pancreatic adenocarcinoma, ascites), 143B (osteosarcoma), and SJSA-1 (osteosarcoma). […] After 96 hours of incubation, 50 μL of CellTiter Glo reagent (Promega) was added to each well and luminescence was measured after 10 minutes using EnVision (PerkinElmer). […] IC50, relative IC50, or % of top inhibition was calculated. […]
pIC50: −log10 of the molar value.
assayEndpoint: pIC50

- C[C@H]1Cc2c([nH]c3ccc(Cl)cc23)[C@H](c2ccc(N3CCOCC3)cc2)N1C(=O)CCl [Example 120]: 6.44
- C[C@H]1Cc2c([nH]c3ccccc23)[C@H](c2ccc(N3CCC3)cc2)N1C(=O)CCl [Compound 239]: 8.40
- COC(=O)c1ccc([C@H]2c3[nH]c4ccccc4c3C[C@H](C(=O)OC)N2C(=O)/C=C/CN(C)C)cc1 [Compound 273]: 5.77
- CC#CC(=O)N1[C@@H](c2ccc(C(=O)OC)cc2)c2[nH]c3ccccc3c2C[C@@H]1C(=O)OC [Compound 272]: 5.40
- COC(=O)[C@H]1Cc2c([nH]c3ccccc23)[C@H](c2ccc(C(=O)OC(C)(C)C)cc2)N1C(=O)C(Cl)Cl [Compound 263]: 4.98
- CC(C)(C)OC(=O)c1ccc([C@H]2c3[nH]c4ccccc4c3C[C@H](CO)N2C(=O)CCl)cc1 [Compound 257]: 4.98
- [2H]C([2H])(Cl)C(=O)N1[C@@H](c2ccc(S(=O)(=O)NC34CC5CC(CC(C5)C3)C4)cc2)c2[nH]c3ccccc3c2C[C@@H]1C(=O)OC [Compound 251]: 8.19
- C[C@H]1Cc2c([nH]c3ccccc23)[C@H](c2ccc(C3(O)CCOCC3)cc2)N1C(=O)CCl [Compound 237]: 6.34
- C[C@H]1Cc2c([nH]c3ccc(C(C)(C)O)cc23)[C@H](c2ccc(N3CCOCC3)cc2)N1C(=O)CCl [Compound 235]: 7.39
- COC(=O)c1ccc([C@H]2c3[nH]c4ccc(OC)cc4c3C[C@H](C(=O)OC)N2C(=O)CCl)cc1 [Compound 277]: 7.44
- CC(C)[C@H]1Cc2c([nH]c3ccccc23)[C@H](c2ccc(N3CCOCC3)cc2)N1C(=O)CCl [Compound 119]: 6.99
- COC(=O)[C@H]1Cc2c([nH]c3ccccc23)[C@H](c2ccc(O)cc2)N1C(=O)CCl [Example 265]: 6.80
- C=CC(=O)N1[C@@H](c2ccc(C(=O)OC)cc2)c2[nH]c3ccccc3c2C[C@@H]1C(=O)OC [Compound 274]: 5.34
- CN(C)C(=O)[C@H]1Cc2c([nH]c3ccccc23)[C@H](c2ccc(N)cc2)N1C(=O)CCl [Compound 259]: 6.75
- COC(=O)[C@H]1Cc2c([nH]c3ccccc23)[C@H](c2ccc(C(=O)OC(C)(C)C)cc2)N1C(=O)C(C)(C)CCl [Compound 264]: 5.06
- C[C@H]1Cc2c([nH]c3ccccc23)[C@H](c2ccc(C3(O)COC3)cc2)N1C(=O)CCl [Compound 236]: 5.92
- CCC[C@H]1Cc2c([nH]c3ccccc23)[C@H](c2ccc(N3CCOCC3)cc2)N1C(=O)CCl [Example 118]: 9.04

* * *

Test system: MiaPaCa-2
Assay: Cell viability assay (CellTiter Glo), pancreatic carcinoma MiaPaCa-2
Format: cell-based
Details: Homo sapiens, MIA PaCa-2; pancreatic carcinoma, 96 hours, CellTiter Glo; read-out: IC50 MiaPaCa-2
assayEndpoint: IC50 (µM)

- CC(C)(C)OC(=O)c1ccc([C@H]2c3[nH]c4ccccc4c3C[C@H](C(=O)OC(C)(C)C)N2C(=O)CCl)cc1 [Example 19]: 0.063
- COC(=O)c1ccc([C@H]2c3[nH]c4ccccc4c3C[C@H](C(=O)OC)N2C(=O)CCl)cc1 [Example K601, RSL3, reference compound]: 0.015
- COC(=O)[C@H]1Cc2c([nH]c3ccccc23)[C@H](c2ccc(S(=O)(=O)N(C)C)cc2)N1C(=O)CCl [Example 23]: 0.036

* * *

System: A549
Experiment: Cell viability assay, A549 cells
Format: cell-based
Settings: Homo sapiens, A549, Cell Line A549; read-out: IC50
Method: Example 5: Inducer Compound Effect on Growth of A549 and KP4 Cells Cell viability assay was performed to assess the potency of the compounds in cancer cell line KP4 (pancreatic ductal adenocarcinoma). […] After 96 hours of incubation, 50 μL of CellTiter Glo reagent (Promega) was added to each well and luminescence was measured after 10 minutes using EnVision (PerkinElmer). […] Data was analyzed using XL-fit software (ID Business Solutions Ltd.). IC50, relative IC50, or % of top inhibition was calculated. […]
Overview of recorded IC50 for various compounds
assayEndpoint: IC50

* C#CC(=O)N1[C@@H](c2ccc(F)c(F)c2)c2[nH]c3ccccc3c2C[C@@H]1C | 19.5 µM
* CC(C)[C@H]1Cc2c([nH]c3ccccc23)[C@H](c2ccc(N3CCOCC3)cc2)N1C(=O)CCl | 12.8 µM
* C#CC(=O)N1[C@@H](c2ccc(Cl)cc2)c2[nH]c3ccccc3c2C[C@@H]1C | 20.6 µM
* [2H]C([2H])(Cl)C(=O)N1[C@@H](c2ccc(C(=O)NC34CC5CC(CC(C5)C3)C4)cc2)c2[nH]c3ccccc3c2C[C@@H]1C(=O)OC | 2.4 µM
* CC(C)=CC(=O)N1[C@@H](c2ccc(N3CCOCC3)cc2)c2[nH]c3ccccc3c2C[C@@H]1C | > 30 µM
* COCCOCCOCCOCCOC(=O)[C@H]1Cc2c([nH]c3ccccc23)[C@H](c2ccc(NC34CC5CC(CC(C5)C3)C4)cc2)N1C(=O)CCl | 4.11 µM
* C[C@H]1Cc2c([nH]c3ccccc23)[C@H](c2ccc(S(F)(F)(F)(F)F)cc2)N1C(=O)CCl | 3.35 µM
* C#CC(=O)N1[C@@H](c2ccc(Br)cc2)c2[nH]c3ccccc3c2C[C@@H]1C | 16.4 µM

meta.source: patent US11098040B2
